tested on: HIV-1; assay: Inhibition of HIV-1 giant cell formation in CEM cells; type: cell-based; conditions: Human immunodeficiency virus 1, CCRF-CEM, 96 h; CEM cells, giant cell formation after 4 days; Tables I and II; read-out: EC50/μM HIV-1 CEM
Here, each record is paired with measured EC50 data.
Return type: number; implicit unit µM.

Completed entries (count: 2):
Nc1nc(NC2CC2)c2ncn([C@H]3C=C[C@@H](CO)C3)c2n1 [Abacavir, reference compound]; 1.9
COC(=O)C(C)NP(=O)(OCC1C=CC(n2cnc3c(=O)[nH]c(N)nc32)C1)Oc1ccccc1 (stereo not drawn) [Example A, reference compound]; 1.3

Moving on to the next molecule.
Given the molecule Nc1nc2c(ncn2[C@H]2C=C[C@@H](CO)C2)c(=O)[nH]1 [reference compound] and test system HIV-1, the measured EC50 is 2

----------
# Lookup of reported CC50 keyed by entry
test system: CEM cells; assay: Toxicity to mock-infected CEM cells (CC50); assay type: cell-based; conditions: Table III; toxicity to CEM cells; read-out: CC50 CEN
Counter-ions that a name gives are not always drawn.
Value expressed in µM; do not type the unit.

Illustrative cases are given below, each with its answer.
COC(=O)C(C)(C)NP(=O)(OC[C@@H]1C=C[C@H](n2cnc3c(NC4CC4)nc(N)nc32)C1)Oc1ccccc1 (stereo partly shown); 8.91
C[C@H](NP(=O)(O)OC[C@@H]1C=C[C@H](n2cnc3c(NC4CC4)nc(N)nc32)C1)C(=O)O [Compound 1540, diammonium salt]; 115
COC(=O)[C@H](CC1CCCCC1)NP(=O)(OC[C@@H]1C=C[C@H](n2cnc3c(NC4CC4)nc(N)nc32)C1)Oc1ccccc1 (stereo partly shown); 16
CCCCCOC(=O)[C@H](C)NP(=O)(OC[C@@H]1C=C[C@H](n2cnc3c(NC4CC4)nc(N)nc32)C1)Oc1ccccc1 (stereo partly shown); 16.4

CEM cells CC50 of COC(=O)[C@H](Cc1c[nH]c2ccccc12)NP(=O)(OC[C@@H]1C=C[C@H](n2cnc3c(NC4CC4)nc(N)nc32)C1)Oc1ccccc1 (stereo partly shown) is 18.3

Fill in: CEM cells CC50 for COC(=O)CC[C@H](NP(=O)(OC[C@@H]1C=C[C@H](n2cnc3c(NC4CC4)nc(N)nc32)C1)Oc1ccccc1)C(=O)OC (stereo partly shown) = 36.9

Hey, CEM cells data for C[C@H](NP(=O)(OC[C@@H]1C=C[C@H](n2cnc3c(NC4CC4)nc(N)nc32)C1)Oc1ccccc1)C(=O)OC1CCCCCC1 (stereo partly shown) : CC50 came out at 6.32

Measured on CEM cells, C[C@H](NP(=O)(OC[C@@H]1C=C[C@H](n2cnc3c(NC4CC4)nc(N)nc32)C1)Oc1ccccc1)C(=O)OCC(C)(C)C (stereo partly shown) has a documented CC50 of 8.07

Record CC(C)OC(=O)[C@H](C)NP(=O)(OC[C@@H]1C=C[C@H](n2cnc3c(NC4CC4)nc(N)nc32)C1)Oc1ccccc1 (stereo partly shown) / CEM cells, CC50 recorded as 9.18

Measured CC50 for this entry C[C@H](NP(=O)(OC[C@@H]1C=C[C@H](n2cnc3c(NC4CC4)nc(N)nc32)C1)Oc1ccccc1)C(=O)OCC1CCCCC1 (stereo partly shown) on CEM cells: 15.1

Measured on CEM cells, CCCCOC(=O)[C@H](C)NP(=O)(OC[C@@H]1C=C[C@H](n2cnc3c(NC4CC4)nc(N)nc32)C1)Oc1ccccc1 (stereo partly shown) has a documented CC50 of 8.23

Let me check: COC(=O)[C@H](C)NP(=O)(OC[C@@H]1C=C[C@H](n2cnc3c(NC4CC4)nc(N)nc32)C1)Oc1ccc(Cl)cc1 (stereo partly shown) , system CEM cells, measured CC50 is 4.7

Bench note, CEM cells: CCCOC(=O)[C@H](C)NP(=O)(OC[C@@H]1C=C[C@H](n2cnc3c(NC4CC4)nc(N)nc32)C1)Oc1ccccc1 (stereo partly shown) , CC50 reads 9

Cited source: patent US6638919B2
